- Tested on: CD2F1 mice, L1210 leukemia ip, survival T/C
- measurement-description: NCI In Vivo Anticancer Drug Screen. Data for tumor model L1210 Leukemia (intraperitoneal) in CD2F1 (CDF1) mice
- run-conditions: endpoint: mean survival time; dose: 50.0 mg/kg/injection; schedule: Q01DX009 (ip); vehicle: other; higher = longer survival
Inconclusive results and toxic doses are left out.
Entries and their measured T/C follow.
measurement-kind: T/C

[[record]]
compound = "COc1ccc2ccccc2c1C1/C(=N/O)CCc2ccccc21 (stereo unspecified)"
measurement_kind = "T/C"
result = "98 % of control"

[[record]]
compound = "O=C(N/N=C/c1ccc([N+](=O)[O-])cc1[N+](=O)[O-])c1ccncc1"
measurement_kind = "T/C"
result = "91 % of control"

[[record]]
compound = "COc1ccccc1NC(=O)NC1C(OC(C)=O)OC(COC(C)=O)C(OC(C)=O)C1OC(C)=O (stereo unspecified)"
measurement_kind = "T/C"
result = "98 % of control"

[[record]]
compound = "COc1cccc2c1C(=O)c1c(OC)c(C)cc(OC)c1C2=O"
measurement_kind = "T/C"
result = "110 % of control"

[[record]]
compound = "CCCC1(CCC)c2ccccc2C(Cl)(CCl)c2ccccc21"
measurement_kind = "T/C"
result = "92 % of control"

[[record]]
compound = "CCOC(=O)n1cnc2ncnc(SC)c21"
measurement_kind = "T/C"
result = "102 % of control"


----------
- Test system: CD2F1 mice, L1210 leukemia ip, survival T/C
- measurement-description: NCI In Vivo Anticancer Drug Screen. Data for tumor model L1210 Leukemia (intraperitoneal) in CD2F1 (CDF1) mice
- run-conditions: endpoint: mean survival time; dose: 100.0 mg/kg/injection; schedule: Q01DX001 (ip); vehicle: saline; higher = longer survival
Inconclusive results and toxic doses are left out.
measurement-kind: T/C

[[record]]
molecule = "CN(C)Cc1cccc(CN(C)C)c1O"
result = "106 % of control"

[[record]]
molecule = "O=C(O)CSC1=NCCN1 (tested in a mixture with another compound)"
result = "90 % of control"

[[record]]
molecule = "O=C(O)CC(O)C(=O)O.[Fe] (configuration not stated)"
result = "93 % of control"

[[record]]
molecule = "O=C1C=C(O)c2ccccc2C1=O"
result = "102 % of control"

[[record]]
molecule = "NCC1CC2C=CC1C2 (configuration not stated)"
result = "100 % of control"

[[record]]
molecule = "CC1(C)N=C(N)N=C(N)N1c1ccc(CCC(=O)Nc2ccc(S(=O)(=O)F)cc2)cc1"
result = "102 % of control"

[[record]]
molecule = "CCCCOC(=O)CCl"
result = "100 % of control"


----------
- Tested on: CD2F1 mice, L1210 leukemia ip, survival T/C
- measurement-description: NCI In Vivo Anticancer Drug Screen. Data for tumor model L1210 Leukemia (intraperitoneal) in CD2F1 (CDF1) mice
- run-conditions: endpoint: mean survival time; dose: 100.0 mg/kg/injection; schedule: Q04DX002 (ip); vehicle: saline; higher = longer survival
Toxic doses and inconclusive results are not listed.
Entries and their measured T/C follow.
measurement-kind: T/C

[[record]]
molecule = "CNc1nc(N)nc(CN2CCOCC2c2ccccn2)n1 (configuration not stated)"
result = "88 % of control"

[[record]]
molecule = "Cc1c(-c2ccc(Cl)cc2)nc2cc(Cl)ccc2c1C(=O)O"
result = "92 % of control"

[[record]]
molecule = "CC(C)C1OCC(C)(C)C(C(C)C)O1 (configuration not stated)"
result = "107 % of control"

[[record]]
molecule = "CC1(C(=O)O)CCOC1=O (configuration not stated)"
result = "102 % of control"

[[record]]
molecule = "CC1CCOC1=O (configuration not stated)"
result = "98 % of control"

[[record]]
molecule = "c1ccc(CCNCc2ccccn2)nc1"
result = "96 % of control"

[[record]]
molecule = "CC(=O)/C(C#N)=C(\\C)N"
result = "103 % of control"


----------
- Tested on: CD2F1 mice, L1210 leukemia ip, survival T/C
- measurement-description: NCI In Vivo Anticancer Drug Screen. Data for tumor model L1210 Leukemia (intraperitoneal) in CD2F1 (CDF1) mice
- run-conditions: endpoint: mean survival time; dose: 200.0 mg/kg/injection; schedule: Q04DX003 (ip); vehicle: saline with Tween-80; higher = longer survival
Inconclusive results and toxic doses are left out.
measurement-kind: T/C

[[record]]
molecule = "Cc1ccc(CC(F)(F)F)cc1"
measurement_kind = "T/C"
result = "100 % of control"

[[record]]
molecule = "N/N=C(\\C(=N\\N)c1ccccc1)c1ccccc1"
measurement_kind = "T/C"
result = "93 % of control"

[[record]]
molecule = "CNC(=O)NNc1ccccc1"
measurement_kind = "T/C"
result = "98 % of control"

[[record]]
molecule = "CCCc1ccc(OC)cc1"
measurement_kind = "T/C"
result = "94 % of control"

[[record]]
molecule = "O=P(=O)OP(=O)=O.[O]=[W](=[O])=[O]"
measurement_kind = "T/C"
result = "100 % of control"

[[record]]
molecule = "COc1ccc(-c2cc(C(=O)O)c3ccc(C)cc3n2)cc1"
measurement_kind = "T/C"
result = "101 % of control"

[[record]]
molecule = "CC(C)(C)OC(=O)N1CCCC1C(=O)O (configuration not stated)"
measurement_kind = "T/C"
result = "101 % of control"

[[record]]
molecule = "OCc1c(Cl)c(Cl)c(CO)c(Cl)c1Cl"
measurement_kind = "T/C"
result = "100 % of control"

[[record]]
molecule = "CCCCCCCOc1ccc(N=[N+]([O-])c2ccc(OCCCCCCC)cc2)cc1"
measurement_kind = "T/C"
result = "91 % of control"

[[record]]
molecule = "CC(C)CCOC(=O)Nc1cccc(O)c1"
measurement_kind = "T/C"
result = "100 % of control"

[[record]]
molecule = "OC(CBr)C(O)CBr (configuration not stated)"
measurement_kind = "T/C"
result = "86 % of control"

[[record]]
molecule = "Nc1cc(Cl)c(Cl)cc1Cl"
measurement_kind = "T/C"
result = "94 % of control"

[[record]]
molecule = "c1ccc([CH2][Pb]([c]2ccccc2)([c]2ccccc2)[c]2ccccc2)cc1"
measurement_kind = "T/C"
result = "97 % of control"

[[record]]
molecule = "NC(C1SCCS1)C(O)C(O)C(O)CO (configuration not stated)"
measurement_kind = "T/C"
result = "104 % of control"

[[record]]
molecule = "CCOc1nc(OCC)nc(-c2cccn2-c2ccccc2)n1"
measurement_kind = "T/C"
result = "100 % of control"

[[record]]
molecule = "O/N=C/c1ccc[nH]1"
measurement_kind = "T/C"
result = "96 % of control"

[[record]]
molecule = "CCc1ccc(NN=Nc2ccccc2C#N)cc1"
measurement_kind = "T/C"
result = "95 % of control"

[[record]]
molecule = "COc1cc(NCc2ccccc2O)c2ncccc2c1"
measurement_kind = "T/C"
result = "91 % of control"

[[record]]
molecule = "CC(C)CNC(=O)c1ccc(N=NN(C)Cc2ccncc2)cc1"
measurement_kind = "T/C"
result = "117 % of control"

[[record]]
molecule = "O=C(/C=C(\\C(=O)c1ccccc1)c1ccccc1)c1ccccc1"
measurement_kind = "T/C"
result = "87 % of control"

[[record]]
molecule = "CCOC(=O)c1ccc(N)c(C(O)(C(F)(F)F)C(F)(F)F)c1"
measurement_kind = "T/C"
result = "97 % of control"

[[record]]
molecule = "O=C(O)Cc1c[nH]c2ccc(O)cc12"
measurement_kind = "T/C"
result = "100 % of control"

[[record]]
molecule = "OC(Cc1cnc2ccccc2n1)(C(F)(F)F)C(F)(F)F"
measurement_kind = "T/C"
result = "98 % of control"

[[record]]
molecule = "CCCCCCCCCCCCCCCCN(C)S(=O)(=O)c1cccc(S(=O)(=O)F)c1"
measurement_kind = "T/C"
result = "101 % of control"

[[record]]
molecule = "O=C(Nc1cc(Cl)ccc1Cl)c1ccc(Cl)cc1Cl"
measurement_kind = "T/C"
result = "88 % of control"

[[record]]
molecule = "O=C(c1ccccc1)C1OC1c1ccc(Cl)cc1 (configuration not stated)"
measurement_kind = "T/C"
result = "106 % of control"

[[record]]
molecule = "O=C(c1ccccc1Br)C(Br)C(Br)c1ccccc1 (configuration not stated)"
measurement_kind = "T/C"
result = "111 % of control"


----------
- System: CD2F1 mice, L1210 leukemia ip, survival T/C
- measurement-description: NCI In Vivo Anticancer Drug Screen. Data for tumor model L1210 Leukemia (intraperitoneal) in CD2F1 (CDF1) mice
- run-conditions: endpoint: mean survival time; dose: 200.0 mg/kg/injection; schedule: Q01DX009 (ip); vehicle: saline with Tween-80; higher = longer survival
Toxic doses and inconclusive results are not listed.
measurement-kind: T/C

[[record]]
query_smiles = "NC(=O)NC1CCCCCCC1"
result = "100 % of control"

[[record]]
query_smiles = "COc1cc(/C=N\\N=C\\c2ccc(O)c(OC)c2)ccc1O"
result = "96 % of control"

[[record]]
query_smiles = "CC(=O)CC(=O)Nc1cc(Cl)c(NC(=O)CC(C)=O)cc1Cl"
result = "97 % of control"

[[record]]
query_smiles = "COc1cc(Cl)ccc1NC(=O)OCCOc1ccc(C(C)(C)C)cc1"
result = "95 % of control"

